System tested: PARK7 (Homo sapiens, UniProt Q99497)
Assay text: High-throughput screen of the crude compound library, PARK7 fluorescence polarization (FP) assay with FP reagent JYQ-107
Type: biochemical
Measurement context: 1.25 µM, crude compound library; read-out: HTS FP assay %Inhibition (1.25 µM)
Observation type: inhibition at 1.25 µM (%)

Molecule	Observation type	Unit name	Reported
COc1ccc(C(=O)N2CCc3nc(NC(=O)[C@@H]4CCN(C#N)C4)sc3C2)cc1S(=O)(=O)NCc1ccccn1 [compound 194]	inhibition at 1.25 µM	%	80.2
CCn1cc([C@@H]2OCCC[C@H]2C(=O)N2CCc3nc(NC(=O)[C@@H]4CCN(C#N)C4)sc3C2)cn1 [compound 318]	inhibition at 1.25 µM	%	65.8
Cc1nc(-c2cc(C)n(CCC(=O)N3CCc4nc(NC(=O)[C@@H]5CCN(C#N)C5)sc4C3)c2C)cs1 [compound 196]	inhibition at 1.25 µM	%	61.7
CC(C)c1nc(Cn2cc(C(=O)N3CCc4nc(NC(=O)[C@@H]5CCN(C#N)C5)sc4C3)ccc2=O)cs1 [Compound 149]	inhibition at 1.25 µM	%	93.2
CN(CC1CC1)c1ccc(C(F)(F)F)cc1C(=O)N1CCc2nc(NC(=O)[C@@H]3CCN(C#N)C3)sc2C1 [Compound 304]	inhibition at 1.25 µM	%	93.7
N#CN1CC[C@@H](C(=O)Nc2nc3c(s2)CN(C(=O)c2ccc(Cn4cc(Br)cn4)o2)CC3)C1 [Compound 140]	inhibition at 1.25 µM	%	90.7
N#CN1CC[C@@H](C(=O)Nc2nc3c(s2)CN(C(=O)c2cccn2Cc2ccccn2)CC3)C1 [compound 332]	inhibition at 1.25 µM	%	73.2

----------
System tested: PARK7 (Homo sapiens, UniProt Q99497)
Sequence (Q99497 1-189): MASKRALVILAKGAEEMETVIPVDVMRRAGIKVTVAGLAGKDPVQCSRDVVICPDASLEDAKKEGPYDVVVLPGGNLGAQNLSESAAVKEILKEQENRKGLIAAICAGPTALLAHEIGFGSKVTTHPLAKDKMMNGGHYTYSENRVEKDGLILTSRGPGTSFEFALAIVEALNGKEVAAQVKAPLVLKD
Assay text: High-throughput screen of the crude compound library, PARK7 fluorescence polarization (FP) assay with FP reagent JYQ-107
Type: biochemical
Measurement context: 1.25 µM, crude compound library; read-out: HTS FP assay %Inhibition (1.25 µM)
Source text: Therefore, taking JYQ-88 as a starting point, we conducted an optimization to further improve the molecule in terms of inhibitory potency, specificity, and cellular uptake. […] We next performed a high-throughput screen of this crude compound library using our in-house developed PARK7 fluorescence polarization (FP) assay.[15]
Observation type: inhibition at 1.25 µM (%)

Compound	Observation type	Reported
Cc1nc(-c2c[nH]c(C(=O)N3CCc4nc(NC(=O)[C@@H]5CCN(C#N)C5)sc4C3)c2)cs1	inhibition at 1.25 µM	86.4
N#CN1CC[C@@H](C(=O)Nc2nc3c(s2)CN(C(=O)c2occc2CN2CCOCC2)CC3)C1	inhibition at 1.25 µM	70.9
Cc1nc(C(=O)N2CCc3nc(NC(=O)[C@@H]4CCN(C#N)C4)sc3C2)co1	inhibition at 1.25 µM	70.6
CCc1ccc(C(=O)N2CCC(C(=O)N3CCc4nc(NC(=O)[C@@H]5CCN(C#N)C5)sc4C3)CC2)o1	inhibition at 1.25 µM	78.1
N#CN1CC[C@@H](C(=O)Nc2nc3c(s2)CN(C(=O)c2cccc(OCCOc4ccccc4Cl)n2)CC3)C1	inhibition at 1.25 µM	86.9
N#CN1CC[C@@H](C(=O)Nc2nc3c(s2)CN(C(=O)c2nc(C4CC4)ncc2Br)CC3)C1	inhibition at 1.25 µM	74
Cc1cc(-c2nc(C)sc2CC(=O)N2CCc3nc(NC(=O)[C@@H]4CCN(C#N)C4)sc3C2)c(C)s1	inhibition at 1.25 µM	75.4
Cc1oc(Cn2cc(Br)cn2)cc1C(=O)N1CCc2nc(NC(=O)[C@@H]3CCN(C#N)C3)sc2C1	inhibition at 1.25 µM	87
N#CN1CC[C@@H](C(=O)Nc2nc3c(s2)CN(C(=O)CCN(Cc2ccccc2)S(=O)(=O)c2c(Cl)cccc2Cl)CC3)C1	inhibition at 1.25 µM	69.7
N#CN1CC[C@@H](C(=O)Nc2nc3c(s2)CN(C(=O)C2CN(C(=O)OCc4ccccc4)CCO2)CC3)C1 (some centres unmarked)	inhibition at 1.25 µM	76.7
N#CN1CC[C@@H](C(=O)Nc2nc3c(s2)CN(C(=O)c2csc(-c4ccc(Br)s4)n2)CC3)C1	inhibition at 1.25 µM	86.4
N#CN1CC[C@@H](C(=O)Nc2nc3c(s2)CN(C(=O)c2ccc(N4NC(=O)CCC4=O)cc2)CC3)C1	inhibition at 1.25 µM	85.7
N#CN1CC[C@@H](C(=O)Nc2nc3c(s2)CN(C(=O)c2cc(N4CCOCC4)ccn2)CC3)C1	inhibition at 1.25 µM	72.2
N#CN1CC[C@@H](C(=O)Nc2nc3c(s2)CN(C(=O)Cc2cnn(-c4ccccc4)c2)CC3)C1	inhibition at 1.25 µM	80.2
N#CN1CC[C@@H](C(=O)Nc2nc3c(s2)CN(C(=O)C(OC2CCOCC2)c2ccccc2)CC3)C1 (some centres unmarked)	inhibition at 1.25 µM	67.7
N#CN1CC[C@@H](C(=O)Nc2nc3c(s2)CN(C(=O)c2cnn(-c4ccc(C(F)(F)F)cc4)c2)CC3)C1	inhibition at 1.25 µM	98.2
N#CN1CC[C@@H](C(=O)Nc2nc3c(s2)CN(C(=O)Cc2ccn(-c4ccccc4)n2)CC3)C1	inhibition at 1.25 µM	82.9
N#CN1CC[C@@H](C(=O)Nc2nc3c(s2)CN(C(=O)c2ccc(-c4cccs4)[nH]c2=O)CC3)C1	inhibition at 1.25 µM	72.4
COc1ccc(C(=O)N2CCc3nc(NC(=O)[C@@H]4CCN(C#N)C4)sc3C2)cc1S(=O)(=O)NCCCN1CCOCC1	inhibition at 1.25 µM	89.2
Cn1ncc(C2CC2)c1C(=O)N1CCc2nc(NC(=O)[C@@H]3CCN(C#N)C3)sc2C1	inhibition at 1.25 µM	71.4
N#CN1CC[C@@H](C(=O)Nc2nc3c(s2)CN(C(=O)CC(O)(c2nccn2Cc2ccccc2)C(F)(F)F)CC3)C1 (some centres unmarked)	inhibition at 1.25 µM	78.4
Cc1sc(-n2cnnn2)c(C(=O)N2CCc3nc(NC(=O)[C@@H]4CCN(C#N)C4)sc3C2)c1C	inhibition at 1.25 µM	61.9
N#CN1CC[C@@H](C(=O)Nc2nc3c(s2)CN(C(=O)C(c2ccccc2)n2cnnn2)CC3)C1 (some centres unmarked)	inhibition at 1.25 µM	59.5
Cc1nn(-c2cccnc2)nc1C(=O)N1CCc2nc(NC(=O)[C@@H]3CCN(C#N)C3)sc2C1	inhibition at 1.25 µM	62.8
N#CN1CC[C@@H](C(=O)Nc2nc3c(s2)CN(C(=O)c2ccnn2C2CCC2)CC3)C1	inhibition at 1.25 µM	76
Cc1nc(-c2c(C)c(C)nn(C)c2=O)sc1C(=O)N1CCc2nc(NC(=O)[C@@H]3CCN(C#N)C3)sc2C1	inhibition at 1.25 µM	70.5
Cc1nc(COc2ccccc2C(=O)N2CCc3nc(NC(=O)[C@@H]4CCN(C#N)C4)sc3C2)no1	inhibition at 1.25 µM	74
N#CN1CC[C@@H](C(=O)Nc2nc3c(s2)CN(C(=O)c2ccc(CN4CCCCCC4)s2)CC3)C1	inhibition at 1.25 µM	72.4
N#CN1CC[C@@H](C(=O)Nc2nc3c(s2)CN(C(=O)CC2(Cn4cnnn4)CCCCC2)CC3)C1	inhibition at 1.25 µM	77.5
